List of Mean % WT Binding values.
- experimental.system: human CD33 D246A (human, UniProt P20138 18-364)
- Sequence (P20138 18-364 D246A limits assumed): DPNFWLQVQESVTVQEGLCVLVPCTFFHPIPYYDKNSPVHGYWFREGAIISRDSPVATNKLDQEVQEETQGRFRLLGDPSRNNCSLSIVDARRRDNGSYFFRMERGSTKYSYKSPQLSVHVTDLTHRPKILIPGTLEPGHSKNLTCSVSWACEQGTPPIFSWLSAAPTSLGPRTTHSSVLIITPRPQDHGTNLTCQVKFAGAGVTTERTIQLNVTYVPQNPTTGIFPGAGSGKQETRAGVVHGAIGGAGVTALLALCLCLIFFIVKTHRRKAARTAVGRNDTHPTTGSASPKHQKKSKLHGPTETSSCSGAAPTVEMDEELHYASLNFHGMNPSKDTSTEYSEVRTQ
- test.details: alanine scan, flow cytometry, HEK293-T;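 also: antibody binding to each alanine-substituted CD33 mutant expressed transiently in HEK293-T, read as fluorescence minus background, mean of duplicates, relative to wild-type CD33 set as 100%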
Returns: string containing the number followed by the unit.

Below: 3 binders and their reported Mean % WT Binding.
{"columns": ["binder", "measurement.label", "recorded.value"],
 "data": [
  ["Refmab #1 (antibody, V domains shown, The alanine scan used IgG or Fab; also called hP67.6) VH: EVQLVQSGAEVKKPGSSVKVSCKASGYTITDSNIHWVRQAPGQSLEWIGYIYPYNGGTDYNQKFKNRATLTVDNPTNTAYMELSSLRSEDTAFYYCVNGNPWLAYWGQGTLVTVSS VL: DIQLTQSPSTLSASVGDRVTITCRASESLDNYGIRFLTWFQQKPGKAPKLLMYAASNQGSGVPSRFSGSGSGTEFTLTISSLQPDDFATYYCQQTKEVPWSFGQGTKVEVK", "Mean % WT Binding", "85.2 % WT binding"],
  ["Refmab #2 (antibody, V domains shown, The alanine scan used IgG or Fab) VH: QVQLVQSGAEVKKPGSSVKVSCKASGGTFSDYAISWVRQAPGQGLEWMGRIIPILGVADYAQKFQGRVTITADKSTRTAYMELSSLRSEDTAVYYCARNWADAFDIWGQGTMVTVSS VL: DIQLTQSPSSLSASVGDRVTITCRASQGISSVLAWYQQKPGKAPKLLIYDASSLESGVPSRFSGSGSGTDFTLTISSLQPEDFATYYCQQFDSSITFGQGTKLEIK", "Mean % WT Binding", "114 % WT binding"],
  ["Refmab #3 (antibody, V domains shown, The alanine scan used IgG or Fab) VH: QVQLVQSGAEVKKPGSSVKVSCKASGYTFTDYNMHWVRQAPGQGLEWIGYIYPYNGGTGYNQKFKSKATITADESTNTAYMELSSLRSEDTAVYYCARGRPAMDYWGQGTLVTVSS VL: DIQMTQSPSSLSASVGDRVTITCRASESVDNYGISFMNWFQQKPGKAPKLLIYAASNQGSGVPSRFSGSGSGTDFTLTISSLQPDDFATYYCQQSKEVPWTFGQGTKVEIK", "Mean % WT Binding", "115 % WT binding"]
]}

Query: Fill in the blank: the reported Mean % WT Binding of Refmab #4 (antibody, V domains shown, The alanine scan used IgG or Fab) VH: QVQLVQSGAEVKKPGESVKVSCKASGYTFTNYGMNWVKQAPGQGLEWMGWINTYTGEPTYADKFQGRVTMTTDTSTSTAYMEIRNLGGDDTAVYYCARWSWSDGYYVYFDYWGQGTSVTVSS VL: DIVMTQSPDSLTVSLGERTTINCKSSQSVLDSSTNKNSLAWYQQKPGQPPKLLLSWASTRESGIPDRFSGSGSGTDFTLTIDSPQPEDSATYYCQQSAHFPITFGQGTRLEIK is ____.
Reply: 104 % WT binding
